We begin with a simple list: items and their reported pIC50.
- System under test: P2X7 receptor (Homo sapiens (Human), UniProt Q99572)
- Sequence (Q99572 whole entry): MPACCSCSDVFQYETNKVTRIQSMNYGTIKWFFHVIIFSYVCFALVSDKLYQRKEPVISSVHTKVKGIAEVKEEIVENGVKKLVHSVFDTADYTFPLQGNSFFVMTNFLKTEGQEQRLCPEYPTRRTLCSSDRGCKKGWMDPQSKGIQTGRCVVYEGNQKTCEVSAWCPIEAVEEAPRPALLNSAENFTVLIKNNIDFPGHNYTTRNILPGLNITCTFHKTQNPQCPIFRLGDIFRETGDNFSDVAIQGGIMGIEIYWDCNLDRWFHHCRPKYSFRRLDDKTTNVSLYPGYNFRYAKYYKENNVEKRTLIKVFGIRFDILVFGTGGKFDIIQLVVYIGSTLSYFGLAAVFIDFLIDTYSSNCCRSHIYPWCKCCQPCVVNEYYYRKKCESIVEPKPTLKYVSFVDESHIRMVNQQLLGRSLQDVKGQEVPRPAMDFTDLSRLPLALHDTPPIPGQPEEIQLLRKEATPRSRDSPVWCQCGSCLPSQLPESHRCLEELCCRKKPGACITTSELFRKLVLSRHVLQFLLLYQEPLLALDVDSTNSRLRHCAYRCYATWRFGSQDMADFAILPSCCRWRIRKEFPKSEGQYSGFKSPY
- Experiment notes: P2X7 FLIPR assay: antagonism of BzATP response in 293 HEK cells stably expressing P2X7 receptor
- Measurement parameters: FLIPR fluorescence (Fluo-4), agonist BzATP, 293 HEK cells stably transfected with P2X7 receptor
- Experimental: Cells were plated to cell density of approximately 15,000 cells/well in 384-well assay plates (50 μl/well) with 1.5% low serum media (DMEM, 1.5% BCS, 1% L-glut (2 mM), 1% P/S). […] Compound mixtures (A) were added to assay plates containing cells and placed at room temperature for 30 minutes, then BzATP (B) was added. Fluorescence was read using the Tetra FLIPR® (Molecular Devices, Inc., Sunnyvale, Calif., USA) and IC50 values were calculated by standard methods to determine antagonist activity.
pIC50: −log10 of the molar value.

>  <Compound>
N#Cc1ccc(Cl)c(C(=O)NCC(c2ccc(Cl)cc2)N2CCOCC2)c1 (single isomer, unassigned; (-)) [(−)2-chloro-N-[2-(4-chlorophenyl)-2-morpholino-ethyl]-5-cyan]

>  <pIC50>
6.96

$$$$
>  <Compound>
O=C(NCC(c1cnc(C(F)(F)F)nc1)N1CCOCC1)c1cccc(C(F)(F)F)c1Cl (single isomer, unassigned; (-)) [(−)2-chloro-N-[2-morpholino-2-[2-(trifluoromethyl)pyrimidin-]

>  <pIC50>
8.00

$$$$
>  <Compound>
Cc1ncc(C(CNC(=O)c2cccc(Cl)c2Cl)N2CCOCC2)cn1 (centres unmarked) [2,3-dichloro-N-[2-(2-methylpyrimidin-5-yl)-2-morpholino-ethy]

>  <pIC50>
7.68

$$$$
>  <Compound>
Cc1ncc(C(CNC(=O)c2ccc(Cl)cc2Cl)N2CCC(=O)CC2)cn1 (centres unmarked)

>  <pIC50>
6.01

$$$$
>  <Compound>
Cc1ccc(Cl)c(C(=O)NCC(c2ccncc2)N2CCOCC2)c1 (centres unmarked)

>  <pIC50>
5.57

$$$$
>  <Compound>
Cc1ncc(C(CNC(=O)c2c(Cl)cccc2Cl)N2CCC(F)(F)CC2)cn1 (single isomer, unassigned; (+)) [(+)2,6-dichloro-N-[2-(4,4-difluoro-1-piperidyl)-2-(2-methylp]

>  <pIC50>
7.72

$$$$
>  <Compound>
O=C(NCC(c1cnc(C(F)(F)F)nc1)N1CCC(F)(F)CC1)c1c(F)cccc1Cl (single isomer, unassigned; (+)) [(+)2-chloro-N-[2-(4,4-difluoro-1-piperidyl)-2-[2-(trifluorom]

>  <pIC50>
8.08

$$$$
>  <Compound>
O=C(NCC(c1cnc(C(F)(F)F)nc1)N1CCC(F)(F)CC1)c1c(F)cc(F)cc1Cl (single isomer, unassigned; (+)) [(+)2-chloro-N-[2-(4,4-difluoro-1-piperidyl)-2-[2-(trifluorom]

>  <pIC50>
8.03

$$$$
>  <Compound>
COc1ccc(C(CNC(=O)c2ccccc2C)N2CCCCC2)cc1 (centres unmarked)

>  <pIC50>
5.41

$$$$
>  <Compound>
Cc1ncc(C(CNC(=O)c2cc(F)cc(Cl)c2Cl)N2CCC(F)(F)CC2)cn1 (single isomer, unassigned; (-)) [(−)2,3-dichloro-N-[2-(4,4-difluoro-1-piperidyl)-2-(2-methylp]

>  <pIC50>
7.85

$$$$
>  <Compound>
O=C(NCC(c1ccc(C(F)(F)F)nc1)N1CCOCC1)c1cccc(C(F)(F)F)c1Cl (single isomer, unassigned; (+)) [(+)2-chloro-N-[2-morpholino-2-[6-(trifluoromethyl)-3-pyridyl]

>  <pIC50>
7.62

$$$$
